Experiment: Quantitative High-Throughput drug screen in 47 multiple myeloma cell lines against the NCATS MIPE library collection: OCIMY5_PLB cell viability assay (AID 1918988); also: nearly all actives have a fitted effect of over 65% in size
Details: OCI-MY5 myeloma viability, ATP luminescence, 48 h; series mostly up to 45.8 µM
Records with an inconclusive call do not appear. The source made the active and inactive calls. Calls follow the shape of the dose curve; as a rule, active = well fitted cell-killing curve with a large enough effect; inconclusive = small, poorly fitted or top-dose-only effect, or effect the other way; inactive = no such curve, though single readings can be large or run the other way.
API: response.call in active, inactive

Known results for molecules:
molecule	assigned-class
CC(C)Oc1cc(Nc2nc(N[C@@H](C)c3ccc(F)cn3)ncc2Cl)[nH]n1	active
FC(F)(F)c1ccc(C=Cc2nc(COc3ccc(CCCCn4ccnn4)cc3)co2)cc1	active
CC(=O)N1CCN(c2ccc(OCc3nn(C)c(C)c3-c3cccc4c(CCCOc5cc(C)c(Cl)c(C)c5)c(C(=O)O)n(Cc5cccnc5)c34)cc2)CC1	active
C[C@@H]1O[C@@H](O[C@H]2CC[C@@]3(C)[C@H](CC[C@@H]4[C@H]3C[C@@H](O)[C@]3(C)[C@@H](C5=CC(=O)OC5)CC[C@]43O)C2)C[C@H](O)[C@@H]1O[C@H]1C[C@H](O)[C@H](O[C@H]2C[C@H](O)[C@@H](O)[C@@H](C)O2)[C@H](C)O1 (stereo in doubt)	active
CN1c2ccccc2C(=O)N2CCc3c([nH]c4ccccc34)C21 (configuration not stated)	inactive
Cc1cn([C@@H]2C[C@@H](O)[C@H](CO)O2)c(=O)[nH]c1=O	inactive

Now look at this one.
Query: Recorded call for "COc1cc([C@H]2Oc3cc([C@H]4Oc5cc(O)cc(O)c5C(=O)[C@H]4O)ccc3O[C@H]2CO)ccc1O" ?
Reply: active
